# STUDY SYSTEM: Testis-specific serine/threonine-protein kinase 1 (Homo sapiens) (UniProt Q9BXA7)
# Sequence (Q9BXA7 whole entry): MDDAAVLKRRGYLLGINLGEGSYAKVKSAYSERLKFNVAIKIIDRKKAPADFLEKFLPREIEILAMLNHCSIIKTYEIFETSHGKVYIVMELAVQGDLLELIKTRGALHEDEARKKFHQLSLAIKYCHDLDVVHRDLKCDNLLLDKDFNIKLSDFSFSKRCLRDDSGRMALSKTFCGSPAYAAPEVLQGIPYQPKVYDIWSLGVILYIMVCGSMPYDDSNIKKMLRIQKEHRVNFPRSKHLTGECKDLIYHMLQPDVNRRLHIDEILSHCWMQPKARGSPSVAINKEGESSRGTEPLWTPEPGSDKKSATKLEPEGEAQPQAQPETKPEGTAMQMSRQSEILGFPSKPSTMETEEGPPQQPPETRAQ
# CONDITION DESCRIPTION: at 1 µM
RECORDED ENDPOINT: residual activity (%)
Answers are plain numbers, in %.

Solved entries (count: 5):
*Q* I'd like to know its residual activity. The compound in question is "O=[N+]([O-])/C=C/c1ccc2c(c1)OCO2"
*A* 96

*Q* And then "COC(=O)[C@@]1(O)C[C@H]2O[C@]1(C)n1c3ccccc3c3c4c(c5c6ccccc6n2c5c31)C(=O)NC4" , what is it?
*A* -1

*Q* And then C[S+]([O-])c1ccc(-c2nc(-c3ccc(F)cc3)c(-c3ccncc3)[nH]2)cc1 (configuration not stated) , what is it?
*A* 106

*Q* And then "COc1cc(OC)c(/C=C2\C(=O)Nc3ccccc32)c(OC)c1" , what is it?
*A* 92

*Q* And then "CC(C)[C@H](CO)Nc1nc(Nc2cccc(Cl)c2)c2ncn(C(C)C)c2n1" , what is it?
*A* 97

Each of the following entries comes with a recorded value; kindly state residual activity for each.
1. CCc1nc(-c2ccc(OC)cc2)[nH]c1-c1ccncc1
2. O=C1NC(=O)c2c1c1c3ccccc3n3c1c1c2c2ccccc2n1C1CCC3O1

*A*
1: 113; 2: 92
